Hey, just so you know, these numbers are from PubChem BioAssay AID1671202.

molecular target: Huntingtin (Homo sapiens) (UniProt P42858); assay: mutant huntingtin-calmodulin interaction inhibitors – biochemical, AlphaScreen, primary screen (AID 1671202); settings: AlphaScreen His-mHTT/GST-CaM binding, luminescence; at 15 µM;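 further: 0% = both proteins with DMSO and 100% = one protein alone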
Sequence (P42858 whole entry, looked up, stated change not applied): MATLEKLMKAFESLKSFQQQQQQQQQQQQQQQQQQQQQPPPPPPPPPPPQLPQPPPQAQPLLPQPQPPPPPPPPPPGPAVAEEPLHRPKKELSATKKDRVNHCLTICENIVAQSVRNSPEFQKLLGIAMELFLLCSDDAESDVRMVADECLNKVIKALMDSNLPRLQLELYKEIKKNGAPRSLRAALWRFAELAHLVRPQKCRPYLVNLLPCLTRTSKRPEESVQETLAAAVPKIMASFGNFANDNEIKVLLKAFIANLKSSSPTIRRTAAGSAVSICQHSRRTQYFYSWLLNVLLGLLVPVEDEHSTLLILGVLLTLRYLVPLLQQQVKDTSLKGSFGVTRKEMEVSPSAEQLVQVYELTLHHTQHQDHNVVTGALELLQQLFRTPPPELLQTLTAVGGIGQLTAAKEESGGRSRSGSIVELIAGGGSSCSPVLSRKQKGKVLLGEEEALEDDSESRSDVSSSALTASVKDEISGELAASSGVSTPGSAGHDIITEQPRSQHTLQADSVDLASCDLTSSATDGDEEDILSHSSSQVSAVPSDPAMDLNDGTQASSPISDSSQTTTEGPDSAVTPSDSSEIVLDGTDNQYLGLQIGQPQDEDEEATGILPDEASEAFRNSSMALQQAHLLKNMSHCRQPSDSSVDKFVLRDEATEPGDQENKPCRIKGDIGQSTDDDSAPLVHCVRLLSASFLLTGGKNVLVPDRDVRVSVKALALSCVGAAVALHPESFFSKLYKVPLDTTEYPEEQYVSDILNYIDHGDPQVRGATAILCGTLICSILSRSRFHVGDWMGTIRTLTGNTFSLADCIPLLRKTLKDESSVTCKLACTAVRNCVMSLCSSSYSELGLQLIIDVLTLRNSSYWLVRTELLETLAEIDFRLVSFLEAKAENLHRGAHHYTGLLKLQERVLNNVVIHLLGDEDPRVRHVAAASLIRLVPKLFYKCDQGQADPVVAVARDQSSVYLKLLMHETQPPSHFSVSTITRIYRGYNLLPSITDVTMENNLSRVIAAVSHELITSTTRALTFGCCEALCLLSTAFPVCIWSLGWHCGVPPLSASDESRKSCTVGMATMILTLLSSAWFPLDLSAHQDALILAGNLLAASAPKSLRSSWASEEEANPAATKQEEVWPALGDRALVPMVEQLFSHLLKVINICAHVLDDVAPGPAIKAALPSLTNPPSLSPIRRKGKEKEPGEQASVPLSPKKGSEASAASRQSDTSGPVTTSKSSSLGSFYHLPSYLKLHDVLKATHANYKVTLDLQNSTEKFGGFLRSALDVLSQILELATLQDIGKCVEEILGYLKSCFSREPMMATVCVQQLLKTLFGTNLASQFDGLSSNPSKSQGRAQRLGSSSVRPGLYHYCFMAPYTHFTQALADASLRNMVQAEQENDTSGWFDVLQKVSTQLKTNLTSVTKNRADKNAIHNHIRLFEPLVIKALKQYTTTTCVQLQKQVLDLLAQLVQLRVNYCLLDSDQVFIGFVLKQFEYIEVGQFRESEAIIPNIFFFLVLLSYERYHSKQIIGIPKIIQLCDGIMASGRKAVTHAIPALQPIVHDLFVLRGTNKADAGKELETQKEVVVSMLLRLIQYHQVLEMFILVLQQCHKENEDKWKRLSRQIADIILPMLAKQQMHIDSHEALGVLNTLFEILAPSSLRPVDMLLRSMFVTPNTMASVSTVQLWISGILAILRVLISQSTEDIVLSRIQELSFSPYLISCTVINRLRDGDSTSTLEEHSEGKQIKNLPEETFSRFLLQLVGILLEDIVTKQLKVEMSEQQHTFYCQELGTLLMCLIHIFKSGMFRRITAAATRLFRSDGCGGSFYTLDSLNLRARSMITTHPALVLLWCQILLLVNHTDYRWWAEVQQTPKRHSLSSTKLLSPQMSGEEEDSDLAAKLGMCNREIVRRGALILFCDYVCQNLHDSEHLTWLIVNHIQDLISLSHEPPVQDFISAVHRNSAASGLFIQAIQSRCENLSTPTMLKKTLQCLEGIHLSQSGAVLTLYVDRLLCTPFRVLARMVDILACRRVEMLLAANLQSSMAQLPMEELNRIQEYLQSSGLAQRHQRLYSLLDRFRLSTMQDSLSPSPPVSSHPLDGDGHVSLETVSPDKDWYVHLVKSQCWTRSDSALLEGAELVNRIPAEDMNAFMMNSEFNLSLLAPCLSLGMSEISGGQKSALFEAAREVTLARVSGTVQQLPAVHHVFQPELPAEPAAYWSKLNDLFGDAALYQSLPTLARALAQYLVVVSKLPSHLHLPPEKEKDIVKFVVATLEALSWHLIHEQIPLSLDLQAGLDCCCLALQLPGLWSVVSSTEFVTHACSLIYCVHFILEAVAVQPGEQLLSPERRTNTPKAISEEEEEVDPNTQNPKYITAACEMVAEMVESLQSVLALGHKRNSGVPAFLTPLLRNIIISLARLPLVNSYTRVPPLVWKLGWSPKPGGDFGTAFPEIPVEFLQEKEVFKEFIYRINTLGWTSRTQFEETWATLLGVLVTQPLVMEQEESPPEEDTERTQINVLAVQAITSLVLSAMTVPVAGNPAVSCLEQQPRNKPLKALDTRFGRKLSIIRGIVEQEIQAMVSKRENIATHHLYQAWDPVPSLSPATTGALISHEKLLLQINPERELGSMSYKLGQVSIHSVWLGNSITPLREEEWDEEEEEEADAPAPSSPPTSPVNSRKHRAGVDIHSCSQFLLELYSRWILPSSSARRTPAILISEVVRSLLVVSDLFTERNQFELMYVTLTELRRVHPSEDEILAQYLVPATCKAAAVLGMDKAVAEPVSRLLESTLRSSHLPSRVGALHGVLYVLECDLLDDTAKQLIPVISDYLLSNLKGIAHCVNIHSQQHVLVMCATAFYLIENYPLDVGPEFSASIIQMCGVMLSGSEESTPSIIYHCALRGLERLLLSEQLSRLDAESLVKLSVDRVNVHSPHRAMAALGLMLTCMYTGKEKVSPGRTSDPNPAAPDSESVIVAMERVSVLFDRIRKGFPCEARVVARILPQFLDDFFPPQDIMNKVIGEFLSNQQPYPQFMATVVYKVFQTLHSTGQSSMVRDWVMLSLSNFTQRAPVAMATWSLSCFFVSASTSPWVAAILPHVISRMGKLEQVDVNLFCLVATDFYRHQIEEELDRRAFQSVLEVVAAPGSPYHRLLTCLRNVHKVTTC
Hit rate of the full screen: of about 190,000 compounds, about 6,900 (3.6%) were called active. No stated cut-off is given here; in the data, active means inhibition above about 50%; inactive means the rest. The full list was thinned out, with actives kept by preference.
Can you answer with just one of these options? 1.0 (active), 0.0 (inactive)

1. O=C(c1ncn[nH]1)N1CCN(Cc2ccccc2)CC1; 1.0
2. COc1ccc2cc(-c3nnc(NC4CCCCC4)s3)c(=O)oc2c1; 0.0
3. CNCC(=O)N1N=C(c2cccn2C)CC1c1ccccc1 (configuration not stated); 0.0
4. CS(=O)(=O)c1ccc2nc(NC(=O)/C=C/c3ccccc3)sc2c1; 1.0

Query :: Hi team, can someone confirm the assay call for O=C(NC1CC2CC1CN2C(=O)c1ccc(C(F)(F)F)cc1)c1cccnc1 (configuration not stated) ?
Result :: 0.0

Query :: Another molecule: "COc1cccc(CN2COc3ccc4c(c3C2)OC(=Cc2cccnc2)C4=O)c1"
Result :: 0.0

Query :: Another molecule: COCCCNC(=O)C1(C)CCC(=O)N1Cc1ccc(C)cc1 (configuration not stated)
Result :: 0.0

Query :: Another molecule: CCOC(=O)C1CCc2sc(NC(=O)Cn3nc(C)cc3C)nc21 (configuration not stated)
Result :: 0.0

Query :: Another molecule: CCOC(=O)C1CCc2sc(NC(=O)C3COCC(=O)N3Cc3ccccc3)nc21 (configuration not stated)
Result :: 1.0

Query :: Another molecule: "O=C1/C(=C/c2ccc([N+](=O)[O-])cc2)C=C(c2ccccc2)N1c1cccc([N+](=O)[O-])c1"
Result :: 0.0

Query :: Another molecule: "O=C(Nc1cccs1)N1CCN(c2ccc(-c3ccco3)nn2)CC1"
Result :: 1.0

* * *

molecular target: Huntingtin (Homo sapiens); experiment: mutant huntingtin-calmodulin interaction inhibitors – biochemical, AlphaScreen, primary screen (AID 1671202); conditions: AlphaScreen His-mHTT/GST-CaM binding, luminescence; at 15 µM;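 further: 0% = both proteins with DMSO and 100% = one protein alone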
The whole screen tested about 190,000 compounds, of which about 6,900 (3.6%) were called active. Cut-off read from the data, not from the text of the source: active = inhibition above about 50%; inactive = the rest. The full list was thinned out, with actives kept by preference.
Can you answer with just one of these options? active, inactive

1) C1=C(N2CCOCC2)/C(=C/c2nc3ccccc3[nH]2)CC1; active
2) O=C1NC2(CCN(C(=O)c3ccccc3)CC2)Nc2cc(Cl)ccc21; inactive
3) Cc1ccc2c(c1)NC1(CCN(C(=O)c3ccccc3)CC1)c1cccn1-2; active
4) C=CCSC1=C(C#N)C(c2ccco2)C(C(=O)Nc2ccccc2OC)=C(C)N1 (stereo unspecified); inactive
5) c1ccc2[nH]c(-c3nc4ccccc4[nH]3)nc2c1; inactive
6) CCOC(=O)c1c(NC(=O)c2ccc([N+](=O)[O-])s2)sc2c1CCCC2; inactive
7) COc1ccc(C=C2Oc3c(ccc4c3CN(Cc3ccc(OC)c(OC)c3)CO4)C2=O)cc1OC; inactive
8) COC(=O)C(C)Oc1ccc2c(c1)OC(=Cc1ccccc1C)C2=O (stereo unspecified); inactive

Query :: Hi team, can someone confirm the assay call for "CN1CCN(c2cc(C(=O)O)c3cc(F)ccc3n2)CC1" ?
Result :: inactive

Query :: Another compound: "CC(C)(C)[C@H]1CCSC2=NCCC[C@]2(c2ccccc2)C1"
Result :: inactive

Query :: Another compound: "Cc1cc(-c2[nH]c3c(c2-c2cc(C)sc2C)c(=O)n(C)c(=O)n3C)c(C)s1"
Result :: inactive
